# Read-out: growth arrest and DNA damage 45 (GADD45G), GADD45G (gene 10912)
# assay name: LTEA_HepaRG_GADD45G: Life Technologies and Expression Analysis (LTEA) Assay for growth arrest and DNA damage 45 (GADD45G) using HepaRG (AID 2283499)
# test parameters: mRNA level, 48 h; actives raise or lower the signal
Calls of active or inactive are those of the source. The calls were made as follows: active = hit-call score of the fitted dose curve at least 0.9, where 1 is the maximum; inactive = score below 0.9.
Possible outcomes: active, inactive

molecule: CCCCC(CC)COC(=O)c1ccccc1C(=O)OCC(CC)CCCC (centres undefined)
group label: inactive

molecule: CCON=C(CC)C1=C(O)CC(c2c(C)cc(C)cc2C)CC1=O (centres undefined)
group label: inactive

molecule: CCNc1nc(Cl)nc(NCC)n1
group label: inactive

molecule: Oc1ccccc1-c1ccccc1
group label: inactive

molecule: CC(C)C1(C)N=C(c2nc3ccccc3cc2C(=O)O)NC1=O (centres undefined)
group label: inactive

molecule: CC(Oc1ccc(Cl)cc1Cl)C(=O)O (centres undefined)
group label: inactive

molecule: O=C(O)COc1nc(Cl)c(Cl)cc1Cl
group label: inactive

molecule: O=C(Nc1ccccc1)Nc1ccnc(Cl)c1
group label: inactive

molecule: COC(=O)N(OC)c1ccccc1COc1ccn(-c2ccc(Cl)cc2)n1
group label: active

Origin of the recorded values: PubChem BioAssay (EPA / NIEHS)
